# Enzyme Activity Endpoint Assay: Fab′2 per record follows
tgt: pooled human IgG (human IgG1, 2, 3 and 4)
value_kind: Enzyme Activity Endpoint Assay: Fab′2 (ng/µL)

- protein: "PRT-464 (protein) MVTSVWTKGVTPPANFTQGEDVFHAPYVANQGWYDITKAFDGGDDLLCGAATAGNMLHWWFDQNKDQIERYLKEHPEKQKINFNGEQMFDVKEAIDTKDSQTNSELFNYFKEKAFPYLSTKHLGVFPDHVLDMFINGYRLSLTNHGPTPVKEGSKDPRGGIFDAVFTRGDQSKLLTSRHDLKNKTLKEISDLIKQELTEGKALGLSHTYANVRINHVINLWGADFDSEGNLKAIYVTDSDSNASIGMKKYFVGVNSAGKVAISAKEIKEDNIGAQVLGLFTLSTGQDIWNQTNLEHHHHHH"
  result: 0
- protein: "PRT-574 (protein) MANQEIRYSEETPKTITSVWTKGVTPPTDFIYNEDVLHAPYIANQGWYDITKTFNGKDDLLCGAATAGNMLHWWFDQNKEQIERYLKKHPEKQKINFNGEQMFDVKEAIDTKDSQTNSKLFEYFKDKAFPYLSTKHLGVFPDHVIDMFINGYRLSLTNHGPTPVKEQTKDPRGGIFDAVFTRGDQSKLLTSRHDFKEKTLNEISDLIKQELTEGKALGLSHTYANVRINHVINLWGADFDAEGNLEAIYVTDSDSNASIGMKKYYVGVNSAGKVAISAKEIEGDNIGAQVLGLFTLSTGKDIWEQTNLEHHHHHH"
  result: 660
- protein: "PRT-434 (protein) MSQTEDSESLQRLRDIEDFQAEKKKQNVVYTKWLDGVDVKDHDFRKIVDGNIAYYATPLLNGRGFYDINKDFNRDSDKCAAAVAANMFHYWLDRNRDNVDRFLRQNPEKHGIIELPDGQLKLSDFLNTYESDDGYRDKSKLFDFISNNFNGPVWTDKLLDNYINGYAYNYKYGRTIEDPTKNTSKINFFKEVFNEKILTNNHSIRNQNEFSVLLSEALYTGKAIGLSYGPAGLRHGLGHIISVWGADLDADGNVVAIYVTDSDDKKLTIGDERVGLKRYKISTDDEGRLRLTAYEETHNTGGQIRGLWTLDTGKQAWADYFDKTEQTGTDQAEQ"
  result: 567
- protein: "PRT-474 (protein) MVTSVWTKGVTPPTDFRKIVDGNIAYYHAPYKAGQGWYDITKAFDGGDDLLCGAATAGNMLHWWFDQNKEQIENYLKKHPEKQKINFNGEQMFDVKEAIDTKDSQTNSELFNYFKEKAFPYLSTKHLGVFPDHVIDMFINGYRLSLTNHGPTPVKRGSKDPRGGIFDAVFTRGDQSKLLTNRHDLKNKTLKEISDLIKQELTEGKALGISHTYANVRINHVINLWGADFDAEGNLEAIYVTDSDSNASIGMKKYFVGVNSNGKVAISAKEIEEDNIGAQVLGLFTLSTGQDIWNQTNLEHHHHHH"
  result: 462
